Target: human ether-à-go-go-related gene (hERG) potassium channel (human);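 further: peak tail current of the secondary pulse compared with the same well before compound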
Assay: primary screen, population patch clamp on CHO cells stably expressing hERG; higher = less effect of the substance
Among all 310,000 compounds or so, about 14,000 (4.5%) showed an effect of 50% or more. Effects have a minus sign here. Only a selection was taken, and strong results are over-represented in it overall.
Assignment: determine reported hERG current change (%, negative = inhibition) at 10uM for the given compounds.
One number for each entry, in %.

Worked set:
Input line: Consider the compound shown here: Cc1ccc(C)c(OCC(O)CN2CCc3ccccc3C2)c1C.Cl (stereo not shown) What is its recorded hERG current change (%, negative = inhibition) at 10uM?
Output line: -65.3

Input line: Could you share which hERG current change (%, negative = inhibition) at 10uM value was measured for `COC(=O)c1cc2oc(C)cc2n1CC(=O)N1CCCc2ccccc21` ?
Output line: -11.9

Input line: Quick one: hERG current change (%, negative = inhibition) at 10uM of Cl.OC(COc1c(F)cc(Br)cc1F)CN1CCOCC1 (stereo not shown) ?
Output line: 2.28

Input line: # hERG current change (%, negative = inhibition) at 10uM lookup, item `Cc1cc(C)nc(N2CCC(C(=O)NC3CCCCCC3)CC2)n1`
Output line: -4.75

Below are some compounds; for each one, tell me its hERG current change (%, negative = inhibition) at 10uM.
1. Cc1c(Cl)cccc1NC(=S)NCCc1ccccn1
2. COC(=O)C1=C(c2cc3ccccc3s2)C[C@@H]2CC[C@H]1N2C(=O)NCCNC(C)=O
3. O=C(CN1CCCCCC1)Nc1ccc([N+](=O)[O-])cc1Br
4. C=C(C)COc1ccc(-c2[nH]ncc2-c2ccc(OC)c(OC)c2)c(O)c1
5. O=C(CCN1C(=O)c2ccccc2C1=O)Nn1cnnc1
6. Cc1cc(NCc2ccco2)nc(N2CCC(C(=O)NC3CCCCC3)CC2)n1
7. CC(C)CN1C(=O)C(=O)N(CC(=O)c2ccc[nH]2)C1=O

Output line:
1. 9.25
2. 2.06
3. 6.13
4. -0.891
5. -0.368
6. -71.1
7. 1.48

Please supply hERG current change (%, negative = inhibition) at 10uM for each of the following items, keeping them in order.
1. Cl.OC(COc1c(F)cc(Br)cc1F)CN1CCN(c2ccc(F)cc2)CC1 (stereo not shown)
2. CC(=O)N1CCN(CC(=O)Nc2ccc([N+](=O)[O-])cc2Br)CC1

Output line:
1: -25.7; 2: -75.3

---

Molecular target: human ether-à-go-go-related gene (hERG) potassium channel (human, UniProt Q12809);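 further: peak tail current of the secondary pulse compared with the same well before compound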
Sequence (Q12809 whole entry, looked up): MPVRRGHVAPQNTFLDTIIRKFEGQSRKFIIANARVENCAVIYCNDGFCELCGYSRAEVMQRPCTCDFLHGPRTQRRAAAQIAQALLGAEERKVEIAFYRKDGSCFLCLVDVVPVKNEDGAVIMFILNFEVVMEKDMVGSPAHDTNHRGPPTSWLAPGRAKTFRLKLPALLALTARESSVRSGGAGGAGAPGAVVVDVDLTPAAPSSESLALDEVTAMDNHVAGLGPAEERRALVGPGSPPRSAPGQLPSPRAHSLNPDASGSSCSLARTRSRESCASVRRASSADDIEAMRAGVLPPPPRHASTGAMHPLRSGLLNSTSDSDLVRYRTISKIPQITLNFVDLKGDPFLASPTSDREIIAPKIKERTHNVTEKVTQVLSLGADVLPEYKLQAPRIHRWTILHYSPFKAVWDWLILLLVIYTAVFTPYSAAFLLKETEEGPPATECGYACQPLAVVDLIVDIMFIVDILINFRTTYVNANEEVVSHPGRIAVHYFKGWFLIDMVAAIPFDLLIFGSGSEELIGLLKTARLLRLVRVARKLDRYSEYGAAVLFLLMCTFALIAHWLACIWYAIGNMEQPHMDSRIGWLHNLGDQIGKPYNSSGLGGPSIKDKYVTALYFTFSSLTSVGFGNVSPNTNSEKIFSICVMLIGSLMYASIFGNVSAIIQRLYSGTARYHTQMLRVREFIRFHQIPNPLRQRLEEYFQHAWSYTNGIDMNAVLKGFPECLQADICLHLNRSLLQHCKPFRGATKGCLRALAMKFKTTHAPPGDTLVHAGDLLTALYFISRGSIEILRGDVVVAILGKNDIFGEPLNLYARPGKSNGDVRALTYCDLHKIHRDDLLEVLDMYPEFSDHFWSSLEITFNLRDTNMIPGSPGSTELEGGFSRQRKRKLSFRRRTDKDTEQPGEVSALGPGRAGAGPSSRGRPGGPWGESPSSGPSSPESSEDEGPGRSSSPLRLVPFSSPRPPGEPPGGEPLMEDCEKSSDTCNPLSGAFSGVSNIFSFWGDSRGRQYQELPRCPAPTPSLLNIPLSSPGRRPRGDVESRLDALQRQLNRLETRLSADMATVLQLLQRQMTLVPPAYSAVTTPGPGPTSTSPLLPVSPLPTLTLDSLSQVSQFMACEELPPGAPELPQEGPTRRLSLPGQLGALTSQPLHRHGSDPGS
Assay: primary screen, population patch clamp on CHO cells stably expressing hERG; higher = less effect of the substance
About 14,000 (4.5%) of roughly 310,000 compounds showed an effect of 50% or more. Effects have a minus sign here. The list comes from a sample in which strong results are over-represented; it also holds close analogues and randomly drawn compounds.
Property name: hERG current change (%, negative = inhibition) at 10uM (%)
Numbers only, in %.

As a guide, the following entries are already answered.
Input line: hERG current change (%, negative = inhibition) at 10uM lookup needed for `CC(=O)c1cccc(OCc2cc(C(=O)NC3CCN(Cc4ccccc4)CC3)no2)c1` , thanks.
Output line: -62.9

Input line: Which hERG current change (%, negative = inhibition) at 10uM is reported for this compound? `O=C(COc1ccc2c(c1)oc(=O)c1ccccc12)NCCN1CCOCC1`
Output line: -11

***
Input line: Which hERG current change (%, negative = inhibition) at 10uM reading was recorded for the compound `CC(C)CCN1C(Nc2ccccc2)=NC[C@@H]1CC(C)C` ?
Output line: -33.4

---

Target: human ether-à-go-go-related gene (hERG) potassium channel (human, UniProt Q12809);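 further: peak tail current of the secondary pulse compared with the same well before compound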
Assay: primary screen, population patch clamp on CHO cells stably expressing hERG; higher = less effect of the substance
Screen size: about 310,000 compounds; about 14,000 (4.5%) showed an effect of 50% or more. Effects have a minus sign here. The full list was thinned out, with strong results kept by preference.
Property name: hERG current change (%, negative = inhibition) at 10uM (%)
Give bare numbers, in %.

Consider the reported hERG current change (%, negative = inhibition) at 10uM for these molecules:
Input line: Would you mind telling me what hERG current change (%, negative = inhibition) at 10uM value was observed for `CCCc1cc(=O)oc2c(C)c(OCC(=O)NC3CCN(Cc4ccccc4)CC3)ccc12` ?
Output line: -51.4

Input line: Which hERG current change (%, negative = inhibition) at 10uM is listed for `CCOc1ccc2oc(C(=O)N3CCN(c4ccccc4OCC)CC3)c(C)c2c1` ?
Output line: -52.6

Input line: For CCOc1ccc2oc(C(=O)NCC3CCCO3)c(C)c2c1 (centres unmarked) , what is its reported hERG current change (%, negative = inhibition) at 10uM?
Output line: 11

Input line: Query: hERG current change (%, negative = inhibition) at 10uM; subject: COc1cc(C2NC(=O)NC(c3ccccc3)=C2C(C)=O)ccc1OCC#N (centres unmarked)
Output line: -8.43

Input line: So what's the measured hERG current change (%, negative = inhibition) at 10uM for this one? `CC1(C)CC(NC(=O)Nc2ccc([N+](=O)[O-])cc2)CC(C)(C)N1`
Output line: 9.76

Input line: What does the data say about its hERG current change (%, negative = inhibition) at 10uM? Entry: `O=C(COc1ccc2ccc(=O)oc2c1)NC1CCCCC1`
Output line: 1.43

Input line: Fill blank: measured hERG current change (%, negative = inhibition) at 10uM of the molecule `CC(C)c1ccc(Nc2nnc(SCC(=O)Nc3ncc(S(=O)(=O)c4ccc([N+](=O)[O-])cc4)s3)s2)cc1` is ____.
Output line: 13.8

Input line: Which hERG current change (%, negative = inhibition) at 10uM value belongs to `CCN(CC)CCOC(=O)c1ccc(NC(=O)/C=C/c2cccs2)cc1.Cl` ?
Output line: -76.3

Input line: Could you share which hERG current change (%, negative = inhibition) at 10uM value was measured for `COc1ccc2oc(C(=O)NCc3ccccc3CN3CCCC3)c(C)c2c1` ?
Output line: -66.1

Input line: Could you tell me which hERG current change (%, negative = inhibition) at 10uM is on file for `COc1ccc(-c2nn(CCC(=O)O)cc2/C=C/C(=O)O)cc1[N+](=O)[O-]` ?
Output line: 5.53

Report hERG current change (%, negative = inhibition) at 10uM for each item below.
1. CC1CC(C)CN(C(=S)SCc2nc(N)nc(Nc3ccccc3)n2)C1 (centres unmarked)
2. CCOC(=O)C1(Cc2ccccc2)CCN(Cc2cccn2-c2nccs2)CC1
3. Cc1cccc(NC(=O)CS(=O)(=O)Cc2ccccc2)n1
4. COc1ccc2oc(C(=O)NCc3ccco3)c(C)c2c1
5. O=C(COc1ccc2ccc(=O)oc2c1)NC1CCN(Cc2ccccc2)CC1

Output line:
1. -6.04
2. -82
3. 2.58
4. 8.36
5. -55.2

---

Molecular target: human ether-à-go-go-related gene (hERG) potassium channel (human);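 further: peak tail current of the secondary pulse compared with the same well before compound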
Test: primary screen, population patch clamp on CHO cells stably expressing hERG; higher = less effect of the substance
In all, about 310,000 compounds went through this assay and about 14,000 (4.5%) showed an effect of 50% or more. Effects have a minus sign here. For the sample, strong results were picked, then their nearest neighbours and some compounds at random.
For each record, write down the corresponding hERG current change (%, negative = inhibition) at 10uM.
One number for each entry, in %.

Solved entries:
Input line: What value of hERG current change (%, negative = inhibition) at 10uM has been reported for the following compound? Cc1ccsc1C(=O)C1CCCN(Cc2ccn[nH]2)C1 (stereo not shown)
Output line: 6.96

Input line: // lookup hERG current change (%, negative = inhibition) at 10uM for Cc1ccsc1C(=O)C1CCCN(Cc2cn(C)nc2C)C1 (stereo not shown)
Output line: -40.9

Input line: Which hERG current change (%, negative = inhibition) at 10uM reading was recorded for the compound `COc1ccc(-c2cc(C(F)(F)F)nc(SCC(=O)NCc3cccs3)n2)cc1OC` ?
Output line: -3.84

Input line: Fill blank: measured hERG current change (%, negative = inhibition) at 10uM of the compound `Cc1ccc(S(=O)(=O)C2(C(=O)NCc3ccccc3Cl)CC2)cc1` is ____.
Output line: -15.2

Input line: Which hERG current change (%, negative = inhibition) at 10uM is listed for `Oc1ccc(-[n+]2c(-c3ccccc3)cc(-c3ccccc3)cc2-c2ccccc2)cc1.[O-][Cl+3]([O-])([O-])[O-]` ?
Output line: -71.3

Lab note: each compound below needs its hERG current change (%, negative = inhibition) at 10uM filled in.
1. Brc1ccc(-c2ccccc2)cc1
2. Cc1ccc(NC(=O)CSCC(=O)NC2(C)CCS(=O)(=O)C2)cc1 (stereo not shown)
3. Cc1c(Cc2ccccc2)c(=O)oc2cc(OCC(=O)N3CCC(C(=O)O)CC3)ccc12
4. CCc1cccc2c(C(=O)CCl)c[nH]c12

Output line:
1: 0.132; 2: 5.44; 3: 6.24; 4: -14.3

// provenance: paper PMC4336329
